Molecular target: human A2B receptors (Homo sapiens, UniProt P29275)
Construct: expressed in transfected cells; host or cells: HEK-293
Sequence (P29275 whole entry): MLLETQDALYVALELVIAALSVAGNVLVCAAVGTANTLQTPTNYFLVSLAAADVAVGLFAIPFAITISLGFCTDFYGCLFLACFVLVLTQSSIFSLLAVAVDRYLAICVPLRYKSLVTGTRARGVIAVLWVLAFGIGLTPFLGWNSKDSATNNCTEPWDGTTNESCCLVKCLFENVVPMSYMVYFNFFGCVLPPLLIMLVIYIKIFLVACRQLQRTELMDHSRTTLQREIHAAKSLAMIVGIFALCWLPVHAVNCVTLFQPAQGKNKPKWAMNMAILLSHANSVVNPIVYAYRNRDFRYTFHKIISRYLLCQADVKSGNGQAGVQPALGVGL
Experiment: Binding at human A2B receptors expressed in HEK-293 cells vs [3H]ZM241385
Conditions: HEK-293 cells, vs [3H]ZM241385; read-out: Ki hA2B
measured-parameter: Ki (nM)

{"columns": ["compound", "Ki, nM"],
 "data": [
  ["CCCn1c(=O)c2[nH]c(-c3ccc(OCC(=O)NN4C(=O)C5CC=CCC5C4=O)cc3)nc2n(CCC)c1=O (stereo not drawn) [Compound 18b]", 10],
  ["CCCn1c(=O)c2[nH]c(-c3ccc(OCC(=O)NN4C(=O)C=C(c5ccccc5)C4=O)cc3)nc2n(CCC)c1=O", 66.7],
  ["CCCn1c(=O)c2[nH]c(-c3ccc(OCC(=O)NNC(=O)[C@H](CCSC)NC(=O)OC(C)(C)C)cc3)nc2n(CCC)c1=O", 39.7],
  ["CCCn1c(=O)c2[nH]c(-c3ccc(OCC(=O)NNC(=O)[C@H](CC(C)C)NC(=O)OC(C)(C)C)cc3)nc2n(CCC)c1=O", 47.5]
]}

a. CCCn1c(=O)c2[nH]c(-c3ccc(OCC(=O)NNC(=O)CCC(=O)O)cc3)nc2n(CCC)c1=O
b. CCCn1c(=O)c2[nH]c(-c3ccc(OCC(=O)NN4C(=O)CCC(c5ccccc5)C4=O)cc3)nc2n(CCC)c1=O (stereo not drawn)
Request: Record comparison, field Ki: mark the lower of a and b . Please indicate the selected item by its label.
Result: b

1. CCCn1c(=O)c2[nH]c(-c3ccc(OCC(=O)NN4C(=O)C[C@H](NC(=O)C(F)(F)F)C4=O)cc3)nc2n(CCC)c1=O
2. CCCn1c(=O)c2[nH]c(-c3ccc(OCC(=O)NN4C(=O)c5ccccc5C4=O)cc3)nc2n(CCC)c1=O
3. CCCn1c(=O)c2[nH]c(-c3ccc(OCC(=O)NN4C(=O)C(C)=C(C)C4=O)cc3)nc2n(CCC)c1=O
4. CCCn1c(=O)c2[nH]c(-c3ccc(OCC(=O)NN4C(=O)C=C(C)C4=O)cc3)nc2n(CCC)c1=O
5. CCCn1c(=O)c2[nH]c(-c3ccc(OCC(=O)NN4C(=O)CC[C@H](NC(=O)C(F)(F)F)C4=O)cc3)nc2n(CCC)c1=O [Compound 24b]
Request: Put the entries in order of Ki, starting with the largest number. When ranking, write the labels in the order the request describes.
Result: 4, 2, 1, 3, 5

1. CCCn1c(=O)c2[nH]c(-c3ccc(OCC(=O)NN4C(=O)CC(O)CC4=O)cc3)nc2n(CCC)c1=O
2. CCCn1c(=O)[nH]c(=O)c2[nH]c(-c3ccc(OCC(=O)NN4C(=O)C(C)=C(C)C4=O)cc3)nc21
3. CCCn1c(=O)c2[nH]c(-c3ccc(OCC(=O)NNC(=O)C4CC=CCC4C(=O)O)cc3)nc2n(CCC)c1=O (stereo not drawn) [Compound 18a]
Request: Sort (3 compounds) by Ki: min first. When ranking, write the labels in the order the request describes.
Result: 1, 3, 2
(1: 25.7 nM, 3: 51 nM, 2: 1800 nM)

1. CCCn1c(=O)c2[nH]c(-c3ccc(OCC(=O)NN4C(=O)C5=C(CCC5)C4=O)cc3)nc2n(CCC)c1=O [Compound 19b]
2. CCCn1c(=O)c2[nH]c(-c3ccc(OCC(=O)NN4C(=O)C5=C(CCCC5)C4=O)cc3)nc2n(CCC)c1=O [Compound 20b]
Request: Rank 1 against 2 by their Ki values and give the higher one. Please indicate the selected item by its label.
Result: 2

1. CCCn1c(=O)c2[nH]c(-c3ccc(OCC(=O)NN4C(=O)CCCC4=O)cc3)nc2n(CCC)c1=O
2. CCCn1c(=O)c2[nH]c(-c3ccc(OCC(=O)NNC(=O)CNC(=O)CNC(=O)OCc4ccccc4)cc3)nc2n(CCC)c1=O
3. CCCn1c(=O)c2[nH]c(-c3ccc(OCC(=O)NNC(=O)C4=C(C(=O)O)CCC4)cc3)nc2n(CCC)c1=O [Compound 19a]
Request: Put the entries in order of Ki, starting with the largest number. When ranking, write the labels in the order the request describes.
Result: 3, 1, 2

1. CCCn1c(=O)c2[nH]c(-c3ccc(OCC(=O)NN4C(=O)C(c5ccccc5)=C(c5ccccc5)C4=O)cc3)nc2n(CCC)c1=O
2. CCCn1c(=O)c2[nH]c(-c3ccc(OCC(=O)OCC)cc3)nc2n(CCC)c1=O
Request: Rank 1 against 2 by their Ki values and give the higher one. Please indicate the selected item by its label.
Result: 1

a. CCCn1c(=O)c2[nH]c(-c3ccc(OCC(=O)NN4C(=O)CCC4=O)cc3)nc2n(CCC)c1=O
b. CCCn1c(=O)c2[nH]c(-c3ccc(OCC(=O)NNC(C)=O)cc3)nc2n(CCC)c1=O
Request: Rank a against b by their Ki values and give the higher one. Please indicate the selected item by its label.
Result: b
(b: 65.4 nM, a: 18.6 nM)
